The entries below come with measured melting point values attached.

Examples from the recorded data:
# molecule, melting point
records = [
    ("Cc1c(C)c2c(c(C)c1O)C(c1ccc(N3CCN(C)CC3)cc1)C(C)(C)O2 (stereo not given)", "159 to 161 °C"),
    ("Cc1cc(I)cc(C=O)c1N", "134 °C"),
    ("CC(C)N(C(=O)n1oc(=O)n(C)c1=O)c1ccc(Cl)cc1", "121 to 123 °C"),
]

Quote melting point reported for CCC1(F)CN(C2CCCC2)c2nc(Nc3ccc(C(=O)NC4CCN(C)CC4)cc3OC)ncc2N(C)C1=O (stereo not given) please.
149 to 153 °C

Answer with reported melting point of Cc1ccsc1C(=O)C(=CN(C)C)c1ccc(C(F)(F)F)cc1[N+](=O)[O-]
118 °C

Retrieve melting point measured for CSc1nc(CO)c(CO)n1C and print it.
119 to 120 °C

Let me know recorded melting point for O=C1OC(c2ccccc2)C2CCc3cc(OCCCC(F)(F)F)ccc3N12 (stereo not given) , thanks.
130 °C

Specify reported melting point for the molecule shown: CCOC(=O)c1cn(-c2nccs2)cn1
142 to 143 °C

Please report melting point for the following molecule: N#CC(C#N)=Cc1ccc(OS(=O)(=O)c2cc(Cl)c(Cl)cc2Cl)cc1
165 to 166 °C

Input N#Cc1cccc(NC2CCN(Cc3cc(F)cc(C(F)(F)F)c3)CC2)n1 , output reported melting point.
115 °C

Identify the reported melting point for the following entry. COc1ccc(CCc2oc3ccc(Br)cc3c2CCl)cc1
70 to 75 °C

Give recorded melting point. Cc1ccc2cccc(OCc3c(Cl)ccc(S(=O)(=O)N4CCCC4C(=O)NCCCN)c3Cl)c2n1 (stereo not given)
130 to 132 °C

Please report melting point for the following molecule: COC(=O)c1ccc(-c2ccc(I)c(O)c2)cc1
192 °C

State its melting point: C#CC[C@H](c1nc2cc(Cl)ccc2c(=O)n1Nc1ccccc1)N(CCCN)C(=O)c1cc2ccccc2s1
103 to 106 °C

Return melting point for the following molecule: CCCCCCCCCCCCc1ccccc1CC(O)(SCCC(=O)O)C(N)=O (stereo not given)
97.5 to 102 °C

###

Each entry below carries its recorded melting point.

// worked examples, melting point included
# compound, measureName, observed
rows = [
    ("COC(=O)CN1CCN(C)c2cc(Nc3ncc(Cl)c(Nc4ccccc4NS(C)(=O)=O)n3)ccc2C1", "melting point", "106 to 124 °C"),
    ("CN(CCOc1cn(-c2ccc(F)cc2)c2cc(Cl)ccc12)CCN1CCNC1=O", "melting point", "100 to 102 °C"),
    ("CCCc1ccc2nc(Cl)c(S(=O)(=O)Cl)n2n1", "melting point", "94.2 to 95.5 °C"),
    ("CCOCCn1cc(C2CCN(CCOc3ccc(C)cc3C(=O)O)CC2)c2cc(OC)ccc21", "melting point", "144 to 146 °C"),
    ("CN1C(=O)C(Cc2ccncc2)(Cc2ccncc2)NC1=S", "melting point", "225 to 227 °C"),
    ("COc1ccc(C(NCCNC(c2ccccc2)c2ccc(OC)cc2)c2ccccc2)cc1 (stereo not given)", "melting point", "97 to 98 °C"),
    ("O=C(O)c1cc2c(s1)C1CCC2C1 (stereo not given)", "melting point", "183 to 184 °C"),
    ("CC(C(N)=O)c1ccc(Oc2ccccc2F)cc1 (stereo not given)", "melting point", "106 to 108 °C"),
]

Please supply the value of reported melting point for the item COC(=O)C(C#N)=CC=Cc1cc([N+](=O)[O-])ccc1Cl
193 to 194 °C

Please supply the value of reported melting point for the item O=S(=O)(Nc1cccc(Cl)c1Cl)c1cc(S(=O)(=O)Nc2cccc(Cl)c2Cl)c2cc(O)ccc2c1
117 to 119 °C

###

measureName: melting point

The following compounds have reported results that may help.
# compound, measureName, observed
measured = [
    ("CN(C)C(=O)c1cnn2ccccc12", "melting point", "86 to 87 °C"),
    ("Cc1ccc(S(=O)(=O)OCC2Cc3c(F)ccc(Br)c3O2)cc1 (stereo unspecified)", "melting point", "100 to 103 °C"),
    ("CS(=O)(=O)c1ccc(-c2cnn(CC(F)(F)F)c(=O)c2SC2CCCCC2)cc1", "melting point", "165 to 167 °C"),
    ("O=C(O)CCCCCCCCCCCOC(=O)OCC(Cl)(Cl)Cl", "melting point", "44.6 to 46.4 °C"),
    ("O=C(C=Cc1ccc(CNCC2CCCC2)cc1)Nc1ccc(-c2ccc(Cl)cc2)cc1", "melting point", "209 to 210 °C"),
    ("CCC(Oc1cc(Cl)cc(Cl)c1)C(=O)NCc1ccccc1C (stereo unspecified)", "melting point", "135 to 137 °C"),
    ("CC1(C)C(=O)Nc2cc3[nH]c(CCC(=O)O)nc3cc21", "melting point", "130 to 135 °C"),
    ("COc1ccc(C(=O)c2coc3ccccc23)cc1", "melting point", "89 to 90 °C"),
]

Provide measured melting point value, entry: CCc1noc(-c2ncc3[nH]c4ccccc4c3n2)n1
250 to 257 °C

Look up and state reported melting point for O=[N+]([O-])c1oc2c(CO)cccc2c1-c1ccccc1
128 to 130 °C

Give melting point for the following compound: CCc1cc2c(-c3ccccc3Cl)c(C(=O)O)c(=O)n(C)c2s1
155 to 156 °C

###

As shown below, each of these molecules has a reported melting point value.

Study these solved cases before continuing.
# molecule, melting point
measured = [
    ("CN(Cc1ccc(CCn2cnc3cc(-c4ccc(Cl)cc4)sc3c2=O)cc1)C(=O)C1CC1", "178 °C"),
    ("CN(c1ccc(Cl)cc1)S(=O)(=O)c1cccc(C(=O)Nc2ccc(Br)cc2F)c1", "126 to 127 °C"),
    ("CN(C)Cc1ccc(CSCCNC2=NS(=O)(=O)C(S(C)(=O)=O)=C2N)o1", "187 to 189 °C"),
    ("COC(=O)N[C@H]1Cc2ccc(N)cc2C1", "140 to 142 °C"),
]

Then this molecule:
Please look at this molecule and report its melting point: CCOC(=O)Cc1csc(NS(C)(=O)=O)n1
207 to 208 °C

###

Below: a set of entries, each annotated with reported melting point.

// known answers, use as guide
# compound, measureName, observed
measured = [
    ("COC1(N(C)C)C=CC(C(=O)Nc2ccccc2)=CC1 (stereo not given)", "melting point", "173 °C"),
    ("COC(=O)c1cc2cc(OC)c(OC)cc2c(-c2ccnc(N3C(=O)CCc4ccccc43)c2)c1C(=O)OC", "melting point", "229 to 233 °C"),
    ("CC(C)Nc1ccc([N+](=O)[O-])cc1C(=O)c1ccccc1", "melting point", "155 °C"),
    ("Cc1c(F)c(F)cc2c(=O)c(C(=O)O)cn(-c3cc(O)c(F)cc3F)c12", "melting point", "270 to 278 °C"),
    ("CCn1ncc2c3onc(-c4ccc(OC)cc4)c3cnc21", "melting point", "156 to 157 °C"),
    ("CCC(C)C(S)C(=O)NC1(C(=O)NC(Cc2ccc(-c3ccco3)nc2)C(=O)O)CCCC1 (stereo not given)", "melting point", "175 to 180 °C"),
]

Look up and report measured melting point for this entry: Nc1cccc(-c2cncc(OC[C@@H]3CCN3)c2)c1
85 to 87 °C

###

measureName: melting point

# compound, melting point
data = [
    ("COc1cc(COc2nn(-c3ccccc3)cc2C=O)ccc1OCc1nc(-c2cccc(O)c2)oc1C", "193 to 194 °C"),
]

Return value of melting point for input CC(C)(C)Oc1ccc(C(=O)NCCCCCCCNC(=O)c2ccc(OC(C)(C)C)cc2)cc1 , no commentary.
135 to 136 °C

# return recorded melting point for input CC(C)COC(=O)NC1=NCC(c2ccccc2)N1C (stereo not given)
103 to 104 °C

Query melting point for OC[C@@H]1CC[C@H]2CN(c3ncccn3)CCN2C1 (relative stereo)
135 to 136 °C

Look up melting point of COc1cc(CCC2OCCO2)ccc1OCc1nc(-c2ccccc2)oc1C and report it.
90 to 91 °C

###

Reported values of melting point for individual entries

Please look at this compound and report its melting point: CC(=O)Nc1cnc(-c2cc(Cl)cc(Cl)c2Cl)c(N)n1
200 to 203 °C

###

Reported melting point is given for each of the following compounds.

# compound, observed
records = [
    ("CCOC(=O)Cc1ccc(-c2ccc(OC)cc2)cc1", "68 °C"),
    ("C=CCc1cc(C(C)=O)c(O)cc1OCCCCCC(N)=O", "122 to 124 °C"),
    ("CON(C(=O)c1cn(C)nc1C(F)F)C(C)Cc1c(Cl)sc(Cl)c1Cl (centres undefined)", "70 to 72 °C"),
    ("N#Cc1c(-c2ccc(OCc3ccccc3)cc2)n(Cc2ccc(OCCCl)cc2)c2cccc(OCc3ccccc3)c12", "160 to 162 °C"),
    ("CSc1cc2nnc(C)n2c(C)n1", "201 to 203 °C"),
    ("COc1cccc([C@H]2O[C@H](CC(=O)NCc3ccc(CC(=O)O)cc3)C(=O)N(CC(C)(C)CO)c3ccc(Cl)cc32)c1OC", "129 to 132 °C"),
    ("CC(C)(C(=O)O)c1ccc(OCCNC(=O)C2Cc3ccccc3N2S(=O)(=O)c2ccc(-c3cc(C(F)(F)F)ccc3Cl)cc2)cc1 (centres undefined)", "92 to 100 °C"),
    ("CCOC(=O)C1COc2cc(-c3ccccc3)ccc2O1 (centres undefined)", "103 to 105 °C"),
]

Indicate its recorded melting point; the compound in question is CCCCCCCCCCCCNc1ccnc(Cl)n1
80 to 82 °C

Respond only with melting point recorded for COc1ccc(CCN(C)CCCCc2ccc(NC(=O)c3cccc4c(=O)c5cccc(OC)c5[nH]c34)cc2)cc1OC
170 °C

Output measured melting point for this item: O=C(Nc1ccc(C(=O)N2Cc3ccccc3Cc3ccccc32)cc1)c1ccc(Cl)cc1Cl
212 to 215 °C

Using the record for CC(C)(O)CNc1c([N+](=O)[O-])cnc2cc(Br)cnc12 , state its measured melting point.
189 to 190 °C

Item O=C(O)Cc1cccc2c(-c3ccc(Cl)cc3)nccc12 : provide melting point
234 to 236 °C
